Molecular target: CDK12 wt/CycK (Homo sapiens (Human), UniProt Q9NYV4)
Sequence (Q9NYV4 whole entry): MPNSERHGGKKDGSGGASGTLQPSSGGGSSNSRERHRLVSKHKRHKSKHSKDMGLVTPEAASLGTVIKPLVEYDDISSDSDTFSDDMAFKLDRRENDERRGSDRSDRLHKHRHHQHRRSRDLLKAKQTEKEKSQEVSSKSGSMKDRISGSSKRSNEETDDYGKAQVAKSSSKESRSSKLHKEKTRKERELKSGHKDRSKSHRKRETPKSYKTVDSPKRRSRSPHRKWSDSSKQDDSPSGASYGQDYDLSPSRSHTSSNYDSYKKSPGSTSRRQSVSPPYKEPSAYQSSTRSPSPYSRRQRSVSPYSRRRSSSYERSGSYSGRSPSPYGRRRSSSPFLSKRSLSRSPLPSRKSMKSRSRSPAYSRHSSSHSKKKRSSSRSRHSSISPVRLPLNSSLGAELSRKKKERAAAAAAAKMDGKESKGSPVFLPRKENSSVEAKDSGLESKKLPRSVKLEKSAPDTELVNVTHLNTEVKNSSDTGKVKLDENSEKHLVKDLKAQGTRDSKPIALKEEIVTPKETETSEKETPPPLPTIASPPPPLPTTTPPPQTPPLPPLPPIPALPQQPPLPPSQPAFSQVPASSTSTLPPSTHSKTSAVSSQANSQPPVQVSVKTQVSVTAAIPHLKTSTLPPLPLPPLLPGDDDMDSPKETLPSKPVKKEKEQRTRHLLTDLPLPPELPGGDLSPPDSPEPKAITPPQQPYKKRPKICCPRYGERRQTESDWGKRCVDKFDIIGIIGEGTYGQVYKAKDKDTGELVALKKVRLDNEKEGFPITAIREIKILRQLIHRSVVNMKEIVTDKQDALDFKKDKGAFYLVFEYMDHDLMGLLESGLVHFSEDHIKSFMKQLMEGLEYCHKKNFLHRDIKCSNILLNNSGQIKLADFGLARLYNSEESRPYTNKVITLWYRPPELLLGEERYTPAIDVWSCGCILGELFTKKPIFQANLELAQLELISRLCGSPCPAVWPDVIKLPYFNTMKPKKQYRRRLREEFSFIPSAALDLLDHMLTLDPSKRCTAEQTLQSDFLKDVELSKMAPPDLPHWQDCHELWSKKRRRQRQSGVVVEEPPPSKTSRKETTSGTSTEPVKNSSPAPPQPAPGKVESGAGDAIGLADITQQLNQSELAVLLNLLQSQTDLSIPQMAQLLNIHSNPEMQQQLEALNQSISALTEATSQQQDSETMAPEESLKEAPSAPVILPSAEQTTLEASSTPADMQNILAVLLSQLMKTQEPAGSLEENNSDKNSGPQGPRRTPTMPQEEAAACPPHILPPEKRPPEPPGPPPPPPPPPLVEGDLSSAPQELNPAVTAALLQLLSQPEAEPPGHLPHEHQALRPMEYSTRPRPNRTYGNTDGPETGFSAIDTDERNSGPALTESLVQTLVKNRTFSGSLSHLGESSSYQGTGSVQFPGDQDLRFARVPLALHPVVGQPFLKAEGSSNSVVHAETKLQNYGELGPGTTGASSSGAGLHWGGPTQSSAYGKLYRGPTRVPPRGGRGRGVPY
Sequence (O75909 whole entry partner): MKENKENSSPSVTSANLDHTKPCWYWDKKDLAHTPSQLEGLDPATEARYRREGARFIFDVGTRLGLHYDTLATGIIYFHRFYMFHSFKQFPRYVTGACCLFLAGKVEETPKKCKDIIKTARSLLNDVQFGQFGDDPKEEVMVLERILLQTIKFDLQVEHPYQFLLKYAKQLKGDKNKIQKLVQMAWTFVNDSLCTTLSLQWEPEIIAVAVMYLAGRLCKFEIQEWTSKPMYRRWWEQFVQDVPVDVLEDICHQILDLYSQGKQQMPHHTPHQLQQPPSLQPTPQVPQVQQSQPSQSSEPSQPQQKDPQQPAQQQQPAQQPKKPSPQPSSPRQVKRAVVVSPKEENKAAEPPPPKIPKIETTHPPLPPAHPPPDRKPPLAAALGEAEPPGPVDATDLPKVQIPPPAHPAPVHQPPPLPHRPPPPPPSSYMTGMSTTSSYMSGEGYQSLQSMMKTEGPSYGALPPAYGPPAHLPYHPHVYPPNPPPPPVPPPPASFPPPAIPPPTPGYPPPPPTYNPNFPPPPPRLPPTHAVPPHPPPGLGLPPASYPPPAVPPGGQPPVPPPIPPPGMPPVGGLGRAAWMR
Test: Radiometric protein kinase assay (33PanQinase Activity Assay), Assay Condition A (thiol containing conditions)
Type: biochemical
Details: thiol containing conditions (1.2 mM DTT), ATP 0.3 μM; read-out: CDK12 IC50 Condition A
READOUT LABEL: IC50

Entry CC#CC(=O)Nc1ccc(C(=O)N2CC[C@@H](Nc3ncc(Cl)c(OC)n3)C2)cc1 [Example 151] , IC50 reported as < 100 nM

Entry C=CC(=O)Nc1ccc(C(=O)N2CC[C@@H](Nc3ncc(Cl)c(OCC)n3)C2)cc1 [Example 96] , IC50 reported as < 100 nM

Entry C=CC(=O)N(C)c1ccc(C(=O)N2CC[C@@H](Nc3ncc(Cl)c(OC)n3)C2)nc1 [Example 77] , IC50 reported as 100 to 1000 nM

Entry C=CC(=O)N1CCc2ccc(C(=O)N3CC[C@@H](Nc4ncc(Cl)cn4)C3)cc2C1 [Example 130] , IC50 reported as 100 to 1000 nM

----------
// IC50 lookup, one value per entry
Biological target: CDK12 (Homo sapiens (Human))

C=C(CC)C(=O)Nc1ccc(C(=O)N2CC[C@@H](Nc3ncc(Cl)cn3)C2)cc1; 100 to 1000 nM
C=CC(=O)Nc1c(C)cc(C(=O)N2CC[C@@H](Nc3ncc(Cl)cn3)C2)cc1C; 1000 to 10000 nM
C=CC(=O)Nc1ccc(C(=O)N2CCC[C@@H](Nc3nccc(OC)n3)C2)cc1; 1000 to 10000 nM

Lab entry: CDK12 (Homo sapiens (Human)) assay, compound C=CC(=O)N1CCc2cc(C(=O)N3CC[C@@H](Nc4ncc(Cl)c(OC)n4)C3)ccc21 , IC50 = < 100 nM

Lab entry: CDK12 (Homo sapiens (Human)) assay, compound C=CC(=O)Nc1ccc(C(=O)N2CC[C@@H](Nc3ncc(Br)cn3)C2)cc1C , IC50 = < 100 nM

Lab entry: CDK12 (Homo sapiens (Human)) assay, compound C=CC(=O)Nc1ccc(C(=O)N2CC[C@@H](Nc3ncc(Cl)c(OC)n3)C2)cc1N1CCN(C)CC1 , IC50 = < 100 nM

Lab entry: CDK12 (Homo sapiens (Human)) assay, compound C=CC(=O)Nc1ccc(C(=O)N2CCC[C@@H](Nc3nccc(-c4ccnn4C)n3)C2)cc1 , IC50 = 30000 to 100000 nM

Lab entry: CDK12 (Homo sapiens (Human)) assay, compound C=CC(=O)Nc1ccc(C(=O)N2CC[C@@H](Nc3cc(C)c(Cl)cn3)C2)cc1 , IC50 = < 100 nM

----------
Reported values: IC50 for CDK12 (Homo sapiens (Human)), one per item.

// below: answered compounds
C=CC(=O)Nc1ccc(C(=O)N2CC[C@@H](Nc3ncc(Cl)c(OC)n3)C2)cc1-c1cnn(C)c1 [Example 4]; 0.1 to 1 µM
C=CC(=O)Nc1nc(C(=O)N2CC[C@@H](Nc3ncc(Cl)c(OC)n3)C2)cs1 [Example 7]; < 0.1 µM
CCC(=O)Nc1ccc(C(=O)N2CC[C@@H](Nc3ncc(Cl)c(OC4CC4)n3)C2)cc1 [Example 15]; 0.1 to 1 µM
C=CC(=O)Nc1ccc(C(=O)N2CC[C@@H](Nc3ncc(Cl)cn3)C2)cc1Cl [Example 6]; < 0.1 µM
C=CC(=O)Nc1ccc(C(=O)N2CC[C@@H](Nc3ncc(F)c(OC)n3)C2)cc1 [Example 59]; 0.1 to 1 µM
C=CC(=O)Nc1ccc(C(=O)N2CC[C@@H](Nc3ncc(Cl)c(NC)n3)C2)cc1 [Example 62]; < 0.1 µM

Now look at this one.
Entry C=CC(=O)N1CCCc2cc(C(=O)N3CC[C@@H](Nc4ncc(Cl)c(OC)n4)C3)ccc21 [Example 65] , IC50 reported as < 0.1 µM

----------
Target: CDK12 wt/CycK (Homo sapiens (Human), UniProt Q9NYV4)
Assay: Radiometric protein kinase assay (33PanQinase Activity Assay), Assay Condition A (thiol containing conditions)
Assay type: biochemical
Settings: thiol containing conditions (1.2 mM DTT), ATP 0.3 μM; read-out: CDK12 IC50 Condition A
Procedure: Example 1—Assay Condition A (Thiol Containing Conditions) Objective: The IC50 profile of test compounds was determined using three protein kinases. Test compounds: The compounds were provided as pre-weighed powders in vials. The compounds were dissolved to 1×10^−02M by adding DMSO. […] The reaction cocktails were incubated at 30° C. for 60 minutes. […] Incorporation of ^33Pi was determined with a microplate scintillation counter (Microbeta, Wallac). […]
pIC50: −log10 of the molar value.
READOUT LABEL: pIC50

// below: answered compounds
C=CC(=O)N(C)c1ccc(C(=O)N2CC[C@@H](Nc3ncc(Cl)c(OC)n3)C2)cc1; > 7.00
[2H]C([2H])([2H])Oc1nc(N[C@@H]2CCN(C(=O)c3ccc(NC(=O)C=C)cc3)C2)ncc1Cl; > 7.00
COc1nc(N[C@@H]2CCN(C(=O)c3ccc(NC(=O)/C=C/CN4CCC[C@H](F)C4)cn3)C2)ncc1Cl; 6.00 to 7.00
C=CC(=O)Nc1ccc(C(=O)N2CC[C@@H](Nc3ncc(Cl)c(NC)n3)C2)cc1; > 7.00
COc1nc(N[C@@H]2CCN(C(=O)c3ccc(NC(=O)/C=C/CN4CCC[C@@H](F)C4)cc3)C2)ncc1Cl; 6.00 to 7.00
COc1nc(N[C@@H]2CCN(C(=O)c3ccc(NC(=O)/C=C/CN(C)C)c(C)c3)C2)ncc1Cl; 6.00 to 7.00

Entry C=CC(=O)Nc1ccc(C(=O)N2CC[C@@H](Nc3ncc(Cl)cn3)C2)cc1 , pIC50 reported as 6.00 to 7.00

----------
Biological target: CDK12 wt/CycK (Homo sapiens (Human))
Assay: Radiometric protein kinase assay (33PanQinase Activity Assay), Assay Condition A (thiol containing conditions)
Type: biochemical
Conditions: thiol containing conditions (1.2 mM DTT), ATP 0.3 μM; read-out: CDK12 IC50 Condition A
pIC50: −log10 of the molar value.
READOUT LABEL: pIC50

C=CC(=O)Nc1ccc(C(=O)N2CC[C@@H](Nc3ncc(C#N)c(OC)n3)C2)cc1 [Example 160]; 4.52 to 5.00
COc1nc(N[C@@H]2CCN(C(=O)c3ccc(NC(=O)/C=C/CN4CCOCC4)cc3)C2)ncc1Cl [Example 168]; 6.00 to 7.00
COc1nc(N[C@@H]2CCN(C(=O)c3ccc(NC(=O)/C=C/CN4CCC[C@@H](F)C4)cn3)C2)ncc1Cl [Example 176]; 6.00 to 7.00
CCC(=O)Nc1ccc(C(=O)N2CC[C@@H](Nc3ncc(Br)c(OC)n3)C2)cc1 [Example 14]; > 7.00

Now look at this one.
Lab entry: CDK12 wt/CycK (Homo sapiens (Human)) assay, compound C=CC(=O)Nc1ccc(C(=O)N2CC[C@@H](Nc3cc(OC)c(Cl)cn3)C2)cc1 [Example 54] , pIC50 = > 7.00

----------
Reported values: IC50 for CDK12 (Homo sapiens (Human)), one per item.

Lab entry: CDK12 (Homo sapiens (Human)) assay, compound C=CC(=O)Nc1ccc(C(=O)N2CC[C@@H](Nc3ncc(C)c(OC4CC4)n3)C2)cc1 [Example 81] , IC50 = 100 to 1000 nM

----------
Biological target: CDK12 wt/CycK (Homo sapiens (Human), UniProt Q9NYV4)
Assay: Radiometric protein kinase assay (33PanQinase Activity Assay), Assay Condition A (thiol containing conditions)
Type: biochemical
Conditions: thiol containing conditions (1.2 mM DTT), ATP 0.3 μM; read-out: CDK12 IC50 Condition A
pIC50: −log10 of the molar value.
READOUT LABEL: pIC50

C=CC(=O)Nc1ccc(C(=O)N2CC[C@@H](Nc3ncc(C(F)(F)F)c(N(C)C)n3)C2)cc1; 4.52 to 5.00

Lab entry: CDK12 wt/CycK (Homo sapiens (Human), UniProt Q9NYV4) assay, compound C=CC(=O)Nc1ccc(C(=O)N2CC[C@@H](Nc3ncc(Cl)cn3)C2)cc1OC1CCOC1 (stereo partly shown) , pIC50 = 6.00 to 7.00

Lab entry: CDK12 wt/CycK (Homo sapiens (Human), UniProt Q9NYV4) assay, compound COc1nc(N[C@@H]2CCN(C(=O)c3ccc(NC(=O)/C=C/CN4CC[C@@H](F)C4)cc3)C2)ncc1Cl , pIC50 = > 7.00

Lab entry: CDK12 wt/CycK (Homo sapiens (Human), UniProt Q9NYV4) assay, compound COc1nc(N[C@@H]2CCN(C(=O)c3ccc(NC(=O)/C=C/CN4CCC[C@H](F)C4)cc3)C2)ncc1Cl , pIC50 = 6.00 to 7.00

Lab entry: CDK12 wt/CycK (Homo sapiens (Human), UniProt Q9NYV4) assay, compound C=CC(=O)N(C)c1ccc(C(=O)N2CC[C@@H](Nc3ncc(C#N)cn3)C2)cc1 , pIC50 = 6.00 to 7.00

Lab entry: CDK12 wt/CycK (Homo sapiens (Human), UniProt Q9NYV4) assay, compound COc1nc(N[C@@H]2CCN(C(=O)c3ccc(NC(=O)/C=C/CN4CCCC(F)(F)C4)cc3)C2)ncc1Cl , pIC50 = 6.00 to 7.00

Lab entry: CDK12 wt/CycK (Homo sapiens (Human), UniProt Q9NYV4) assay, compound C=CC(=O)Nc1ccc(C(=O)N2CC[C@@H](Nc3ncc(Cl)c(N)n3)C2)cc1 , pIC50 = > 7.00
